Target: Lysosomal Pro-X carboxypeptidase (Mus musculus, UniProt Q7TMR0)
Sequence (Q7TMR0 whole entry): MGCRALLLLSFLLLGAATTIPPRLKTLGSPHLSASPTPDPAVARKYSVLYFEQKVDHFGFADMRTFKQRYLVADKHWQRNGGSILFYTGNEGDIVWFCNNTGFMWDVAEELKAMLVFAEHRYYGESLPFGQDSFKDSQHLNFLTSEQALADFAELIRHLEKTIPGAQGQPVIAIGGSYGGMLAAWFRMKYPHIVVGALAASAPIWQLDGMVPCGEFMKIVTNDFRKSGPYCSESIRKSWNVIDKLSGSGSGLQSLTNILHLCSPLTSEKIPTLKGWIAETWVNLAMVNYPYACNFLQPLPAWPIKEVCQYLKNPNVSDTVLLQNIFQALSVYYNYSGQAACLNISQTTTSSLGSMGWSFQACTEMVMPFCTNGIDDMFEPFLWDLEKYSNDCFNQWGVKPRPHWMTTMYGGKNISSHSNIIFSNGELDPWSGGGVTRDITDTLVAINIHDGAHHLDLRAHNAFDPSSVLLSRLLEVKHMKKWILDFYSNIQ
Assay: Inhibition of PrCP in mouse plasma assessed as angiotensin 3 cleavage by whole serum shift assay
measure: pIC50
// field semantics: pIC50 = negative decimal log of concentration (mol/L)

// query Please report the recorded pIC50 for FC(F)(F)c1ccc(CN2CCC3(CC2)OC(c2cc(Cl)cc(Cl)c2)c2ccccc23)nc1 (racemic) .
// result 6.84

// query Lookup FC(F)(F)Oc1ccc(CN2CCC3(CC2)OC(c2cc(Cl)ccn2)c2ccccc23)cc1 (stereo unspecified)
// result 7.64

// query Lookup CC(c1ccc(F)cn1)N1CCC2(CC1)OC(c1cc(Cl)cc(Cl)c1)c1ccccc12 (racemic)
// result 7.05

// query Lookup FC(F)(F)Oc1ccc(CN2CCC3(CC2)OC(c2cc(Cl)cc(Cl)c2)c2cnccc23)cc1 (racemic)
// result 6.37

// query Lookup CC(c1ccc(F)cn1)N1CCC2(CC1)OC(c1cc(Cl)ccn1)c1cccnc12 (racemic)
// result 7.72

// query Lookup CC(c1ccc(F)cn1)N1CCC2(CC1)OC(c1cc(Cl)cc(Cl)c1)c1cccnc12 (stereo unspecified)
// result 7.85

// query Lookup CC(C)(c1ccc(OC(F)(F)F)cc1)N1CCC2(CC1)OC(c1cc(Cl)ccn1)c1cccnc12 (racemic)
// result 6.45

// query Lookup FC(F)(F)Oc1ccc(CN2CCC3(CC2)OC(c2cc(Cl)cc(Cl)c2)c2ccncc23)cc1 (racemic)
// result 6.42

// query Lookup O=S(=O)(c1ccc(OC(F)(F)F)cc1)N1CCC2(CC1)OC(c1cc(Cl)cc(Cl)c1)c1cccnc12 (racemic)
// result 6.15
